# Test system: Renilla luciferase RNA
# Method Summary: Barcoded aptazyme variant library screen: un-cleaved Renilla luciferase RNA by barcode read counts, HEK293-T cells
# Type: cell-based
# Test Settings: un-cleaved Renilla luciferase RNA, HEK293-T cells cultured with 1 mM theophylline (ON) over without theophylline (OFF); barcode read counts, triplicate
Rule: class 1 for Fold change in RNA expression between the ON state and the OFF state not less than 2 fold, class 0 for anything less.

Molecule: RA096 (nucleic acid, expressed or natural sequence) DNA: GCGCGTCAGTGATACCAGCATCGTCTTGATGCCCTTGGCAGCACTCTGGATTCGCGGAAACGCGTACATCCAGCTGACGAGTCCCAAATAGGACGAAACGCGC
Qualitative Label: class 0
//
Molecule: RA195 (nucleic acid, expressed or natural sequence) DNA: GCGCGTCGAGAATACCAGCATCGTCTTGATGCCCTTGGAAGTCTCGCCTGGATTCGCGGAAACGCGTACATCCAGCTGACGAGTCCCAAATAGGACGAAACGCGC
Qualitative Label: class 0
//
Molecule: RA028 (nucleic acid, expressed or natural sequence) DNA: GCGCGTCCTGGATTCGCGGAAACGCGTACATCCAGCTGACGACGGAATACCAGCATCGTCTTGATGCCCTTGGAAGTCCGGTCCCAAATAGGACGAAACGCGC
Qualitative Label: class 1
//
Molecule: RA021 (nucleic acid, expressed or natural sequence) DNA: GCGCGTCCTGGATTCGCGGAAACGCGTACATCCAGCTGACGAGTCCCAAATAGAGTGATACCAGCATCGTCTTGATGCCCTTGGCAGCACTGACGAAACGCGC
Qualitative Label: class 1
//
Molecule: RA082 (nucleic acid, expressed or natural sequence) DNA: GCGCGTCCTGGATTCGAGAATACCAGCATCGTCTTGATGCCCTTGGAAGTCTCGGAAACGCGTACATCCAGCTGACGAGTCCCAAATAGGACGAAACGCGC
Qualitative Label: class 0
//
Molecule: RA295 (nucleic acid, expressed or natural sequence) DNA: GCGCGTCCTGGATTCGCGGAAAGGAATACCAGCATCGTCTTGATGCCCTTGGAAGTCCCGCGTACATCCAGCTGACGAGTCCCAAATAGGACGAAACGCGC
Qualitative Label: class 0
//
Molecule: RA085 (nucleic acid, expressed or natural sequence) DNA: GCGCGTCCTGGATTCGCGGAAACGCGTACATCCAGAATACCAGCATCGTCTTGATGCCCTTGGAAGTCTAGCTGACGAGTCCCAAATAGGACGAAACGCGC
Qualitative Label: class 0
//
Molecule: RA151 (nucleic acid, expressed or natural sequence) DNA: GCGCGTCCTGGATTCGCGGAAACGCGTACCGGAATACCAGCATCGTCTTGATGCCCTTGGAAGTCCGGCATCCAGCTGACGAGTCCCAAATAGGACGAAACGCGC
Qualitative Label: class 0
//
Molecule: RA268 (nucleic acid, expressed or natural sequence) DNA: GCGCGTCCTGGATTCGCGGAAACGCGTACATCCAGCTGACGAGTCCCAAATAGGACGAAACGCGGAGAATACCAGCATCGTCTTGATGCCCTTGGAAGTCTCC
Qualitative Label: class 0
//
Molecule: RA183 (nucleic acid, expressed or natural sequence) DNA: GCGCGTCCTGGATTCGCGGAAACGCGTACATCCAGCTGAGAATACCAGCATCGTCTTGATGCCCTTGGAAGTCTACGAGTCCCAAATAGGACGAAACGCGC
Qualitative Label: class 0

stdin: Form field: Fold change in RNA expression between the ON state and the OFF state at least 2 fold? Entry: RA122 (nucleic acid, expressed or natural sequence) DNA: GCGCGTCCTGGATTCGCGGAAACGCGTACATCCAGCTGACGAGTCCCAAATAGGACGAGAATACCAGCATCGTCTTGATGCCCTTGGAAGTCTCGAAACGCGC
stdout: class 0

stdin: Form field: Fold change in RNA expression between the ON state and the OFF state at least 2 fold? Entry: RA165 (nucleic acid, expressed or natural sequence) DNA: GCGCGTCCTGGATTCGCGGAAACGCGTAGAGAATACCAGCATCGTCTTGATGCCCTTGGAAGTCTCCATCCAGCTGACGAGTCCCAAATAGGACGAAACGCGC
stdout: class 0

stdin: Form field: Fold change in RNA expression between the ON state and the OFF state at least 2 fold? Entry: RA197 (nucleic acid, expressed or natural sequence) DNA: GCGCGTCCTGGATTCGCGGAAACGCGTACATCCAGCTGACGAGTCCCAAATAGGACAAAACGCGC
stdout: class 0
